# Test system: UACC-62 melanoma
# PROTOCOL NOTES: NCI tumour cell line growth inhibition, 48 h
MEASURED PARAMETER: log10(TGI) (log10 of the value in µM)
Parameter value (number): base-10 log of TGI in µM.

C=CC(C)(C)/C(=C\CO[Si](C(C)C)(C(C)C)C(C)C)C(=O)N(C)c1ccccc1I : 1.46
Cc1cc(C)c(-c2c(O)c(Br)c(-c3c(C)cc(C)c(Br)c3C)c(O)c2Br)c(C)c1Br : 0.61
Cc1nc(Nc2ccc(Cl)cc2)sc1C(=O)Nc1cccc2c(=O)[nH][nH]c(=O)c12 : 1.21
N#C/C(=C/C=C/c1cccc(Cl)c1)S(=O)c1ccccc1 (stereo unspecified) : 0.43
C=C1C(=O)OC2C[C@@]3(C)CCCC(=C)C3CC12 (stereo partly specified) : 1.26

Q: Please give the measured log10(TGI) for this compound: `O=C(Nc1ccccc1)N1C(c2ccccc2)=N[C@@H](c2ccccc2)[C@@H]1c1ccccc1`
Ans: 1.54

Q: Please give the measured log10(TGI) for this compound: `O=C(NNC(=O)c1ccc(Cl)cc1NC(=O)C12CC3CC(CC(C3)C1)C2)c1ccc(Cl)cc1`
Ans: 1.75

Q: Please give the measured log10(TGI) for this compound: `CCN(CC)c1ccc(/C=N/N=C(N)N)cc1`
Ans: 1.26

Q: Please give the measured log10(TGI) for this compound: C[C@@H]1C[C@@H]2OC(=O)[C@]3(C)[C@H]2[C@@H](OC3(C)O)[C@]2(C)C(=O)C=C[C@@H]12 (stereo partly specified)
Ans: 1.50
